Biological target: Urokinase from human urine (human, UniProt P00749 21-431, limits assumed)
Test: cell-based or functional assay
measuredProperty: % inhibition at 100 µM (%)
One number for each entry, in %.

Input ICTKSDPPXCR (HELM PEPTIDE1{I.C.T.K.S.D.P.P.[Cha].C.R.[dP].P}$PEPTIDE1,PEPTIDE1,2:R3-10:R3|PEPTIDE1,PEPTIDE1,1:R1-13:R2$$$V2.0; SMILES CC[C@H](C)[C@@H]1NC(=O)[C@@H]2CCCN2C(=O)[C@H]2CCCN2C(=O)[C@H](CCCNC(=N)N)NC(=O)[C@@H]2CSSC[C@H](NC1=O)C(=O)N[C@@H]([C@@H](C)O)C(=O)N[C@@H](CCCCN)C(=O)N[C@@H](CO)C(=O)N[C@@H](CC(=O)O)C(=O)N1CCC[C@H]1C(=O)N1CCC[C@H]1C(=O)N[C@@H](CC1CCCCC1)C(=O)N2) [Example 58] . Output % inhibition at 100 µM: 6.7
